assay_system: BChE (Homo sapiens)
Sequence (P06276 29-602, species assumed): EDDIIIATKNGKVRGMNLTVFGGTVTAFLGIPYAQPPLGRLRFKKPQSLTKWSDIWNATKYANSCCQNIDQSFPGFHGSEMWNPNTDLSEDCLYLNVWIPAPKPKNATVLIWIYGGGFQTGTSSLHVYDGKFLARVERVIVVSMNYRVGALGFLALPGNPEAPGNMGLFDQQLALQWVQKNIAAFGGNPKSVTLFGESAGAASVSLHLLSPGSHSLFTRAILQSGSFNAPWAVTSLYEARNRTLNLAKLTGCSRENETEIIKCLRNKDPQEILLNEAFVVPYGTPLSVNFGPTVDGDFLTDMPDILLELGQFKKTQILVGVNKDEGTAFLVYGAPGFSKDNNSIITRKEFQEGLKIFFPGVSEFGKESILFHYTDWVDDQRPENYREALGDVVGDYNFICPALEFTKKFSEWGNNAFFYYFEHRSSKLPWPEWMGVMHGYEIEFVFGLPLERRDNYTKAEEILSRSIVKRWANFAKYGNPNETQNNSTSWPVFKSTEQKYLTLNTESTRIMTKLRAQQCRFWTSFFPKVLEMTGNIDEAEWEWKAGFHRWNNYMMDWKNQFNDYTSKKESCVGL
protocol_description: Anticholinesterase assay (BChE)
Assay type: biochemical
pIC50: −log10 of the molar value.

- test_smiles: "COc1cc(/C=C2\\CC(=O)N(c3ccc(O)cc3)C2=O)ccc1O"
  pIC50: 4.82

====

assay_system: COX-2 (Homo sapiens)
Sequence (P35354 18-604): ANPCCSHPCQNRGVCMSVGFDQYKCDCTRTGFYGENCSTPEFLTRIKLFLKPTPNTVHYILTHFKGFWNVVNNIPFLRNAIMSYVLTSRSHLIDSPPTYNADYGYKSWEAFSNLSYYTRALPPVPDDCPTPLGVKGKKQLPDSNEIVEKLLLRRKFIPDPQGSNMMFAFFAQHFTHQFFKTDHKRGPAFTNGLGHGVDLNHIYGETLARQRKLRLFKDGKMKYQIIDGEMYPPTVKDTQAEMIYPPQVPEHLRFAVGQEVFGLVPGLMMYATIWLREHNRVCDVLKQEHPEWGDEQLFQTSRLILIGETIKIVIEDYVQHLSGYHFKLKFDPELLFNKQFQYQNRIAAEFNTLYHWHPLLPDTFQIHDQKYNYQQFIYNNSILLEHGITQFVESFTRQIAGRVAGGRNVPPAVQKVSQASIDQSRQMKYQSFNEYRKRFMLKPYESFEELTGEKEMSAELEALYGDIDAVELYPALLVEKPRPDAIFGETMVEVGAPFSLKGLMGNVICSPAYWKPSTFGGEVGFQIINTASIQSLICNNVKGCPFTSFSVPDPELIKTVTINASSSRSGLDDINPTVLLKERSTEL
protocol_description: Anticyclooxygenase assay (COX-2)
Assay type: biochemical
particulars: COX-2 IC50, as printed in abstract
pIC50: −log10 of the molar value.

- compound: "COc1cc(/C=C2\\CC(=O)N(c3ccc(O)cc3)C2=O)ccc1O [Compound 5A]"
  pIC50: 5.97

====

assay_system: BChE (Homo sapiens)
protocol_description: Anticholinesterase assay (BChE)
Type: biochemical
particulars: Table 2 prints no unit; text b63 μg/mL, abstract μM
reported_property: IC50 (µM)

- molecule: "COc1cc(/C=C2\\CC(=O)N(c3ccc(O)cc3)C2=O)ccc1O [Compound 5A]"
  meas_value: 46.4

====

assay_system: 5-LOX
protocol_description: 5-Lipoxygenase assay (5-LOX)
particulars: as printed in abstract and b89
pIC50: −log10 of the molar value.

- test_smiles: "COc1cc(/C=C2\\CC(=O)N(c3ccc(O)cc3)C2=O)ccc1O"
  assay_system: "5-LOX"
  pIC50: 6.15

====

assay_system: COX-1 (Homo sapiens, UniProt P23219)
Sequence (P23219 24-599): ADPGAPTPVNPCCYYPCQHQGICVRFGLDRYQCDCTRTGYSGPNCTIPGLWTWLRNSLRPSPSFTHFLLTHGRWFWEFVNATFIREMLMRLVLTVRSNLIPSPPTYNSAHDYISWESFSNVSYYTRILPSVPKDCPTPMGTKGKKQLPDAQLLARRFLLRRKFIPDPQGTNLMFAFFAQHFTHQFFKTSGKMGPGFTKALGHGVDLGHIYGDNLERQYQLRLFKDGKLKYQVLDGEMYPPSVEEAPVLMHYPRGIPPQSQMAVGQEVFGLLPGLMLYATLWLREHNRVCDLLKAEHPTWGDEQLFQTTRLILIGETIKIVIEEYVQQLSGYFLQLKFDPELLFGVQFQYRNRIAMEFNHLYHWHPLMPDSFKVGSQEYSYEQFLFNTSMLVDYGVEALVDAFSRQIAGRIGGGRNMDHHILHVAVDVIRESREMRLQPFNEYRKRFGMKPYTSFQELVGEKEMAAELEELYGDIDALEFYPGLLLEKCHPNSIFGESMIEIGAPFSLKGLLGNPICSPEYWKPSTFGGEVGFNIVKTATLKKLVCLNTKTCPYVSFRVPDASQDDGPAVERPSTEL
protocol_description: Anticyclooxygenase assay (COX-1)
Assay type: biochemical
particulars: COX-1 IC50, as printed in abstract
reported_property: IC50 (µM)

- test_smiles: "COc1cc(/C=C2\\CC(=O)N(c3ccc(O)cc3)C2=O)ccc1O"
  reported_property: "IC50"
  unit_abbreviation: "µM"
  meas_value: 13.9

====

assay_system: UniProtKB P23219
protocol_description: Anticyclooxygenase assay (COX-1)
Type: biochemical
particulars: COX-1 IC50, Table 2 prints no unit; text b63 μg/mL, abstract μM

- compound: "COc1cc(/C=C2\\CC(=O)N(c3ccc(O)cc3)C2=O)ccc1O [Compound 5A]"
  IC50 / µM: 42.8

====

assay_system: AChE (Homo sapiens, UniProt P22303)
Sequence (P22303 32-614): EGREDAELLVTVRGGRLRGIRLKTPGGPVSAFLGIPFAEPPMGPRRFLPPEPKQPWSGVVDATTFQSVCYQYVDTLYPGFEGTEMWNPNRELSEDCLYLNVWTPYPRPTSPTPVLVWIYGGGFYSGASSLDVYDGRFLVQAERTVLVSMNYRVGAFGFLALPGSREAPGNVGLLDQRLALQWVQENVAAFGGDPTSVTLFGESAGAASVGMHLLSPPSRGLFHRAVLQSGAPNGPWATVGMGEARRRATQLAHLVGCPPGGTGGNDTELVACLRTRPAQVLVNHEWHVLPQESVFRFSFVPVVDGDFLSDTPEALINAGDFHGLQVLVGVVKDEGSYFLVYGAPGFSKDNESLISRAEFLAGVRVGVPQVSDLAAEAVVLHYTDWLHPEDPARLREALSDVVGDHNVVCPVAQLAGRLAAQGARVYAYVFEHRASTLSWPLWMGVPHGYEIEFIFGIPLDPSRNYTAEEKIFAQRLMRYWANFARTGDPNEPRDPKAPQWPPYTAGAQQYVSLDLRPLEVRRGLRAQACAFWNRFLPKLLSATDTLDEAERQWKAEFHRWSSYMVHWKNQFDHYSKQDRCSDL
protocol_description: biochemical
reported_property: IC50 (µM)

- test_smiles: "COc1cc(/C=C2\\CC(=O)N(c3ccc(O)cc3)C2=O)ccc1O"
  assay_system: "AChE (Homo sapiens, UniProt P22303)"
  meas_value: 10.6
